System: SNB-78
Test: NCI tumour cell line growth inhibition, 48 h
The source made the active and inactive calls. Cut-off read from the data, not from the text of the source: active = GI50 up to about 1.1 µM and inactive = higher.
Entries annotated with measured GI50
Property Name: GI50

1) C[C@H](C(=O)C12CC3CC(CC(C3)C1)C2)[C@H](O)c1ccccc1 = 31.6 µM (inactive)
2) O=S(O)CCCSSc1ccccc1 = 32.7 µM (inactive)
3) CC12CC(Sc3ccccc3N1)c1ccccc1O2 (stereo unspecified) = 16.5 µM (inactive)
4) CSc1nc(NC2OC(CO)C(O)C(O)C2O)c(N)c(=O)[nH]1 (stereo unspecified) = > 100 µM (inactive)
5) Nc1nc(CCC(=O)Nc2cccc(C(F)(F)F)c2)cc(-c2cccc3ccccc23)n1 = > 100 µM (inactive)
6) CCP(C)(C)=O = > 100 µM (inactive)

----------
System: T47D
Experiment: NCI tumour cell line growth inhibition, 48 h
Calls of active or inactive are those of the source. Cut-off read from the data, not from the text of the source: active = GI50 up to about 1.1 µM and inactive = higher.
Classes used: y for active, n for inactive

1) CC1(C)CC[C@]2(C(=O)O)CC[C@]3(C)C(=CC[C@@H]4[C@@]5(C)C[C@H](O)[C@H](O)[C@@](C)(CO)C5=CC[C@]43C)[C@@H]2C1 = n
2) COC1CC(OC2OC(CO)C(O)C(O)C2O)/C(=C\C#N)C(O)C1OC (centres undefined) = n
3) O=S(=O)(NC(c1ccccc1)(c1cc2ccccc2[nH]1)c1cc2ccccc2n1S(=O)(=O)c1ccccc1)c1ccccc1 (centres undefined) = n
4) CC1=C(O)C(O)=C(C2=C(O)C(O)=C(C)C(=O)C2=O)C(=O)C1=O = n
5) CC(=O)c1nc2ccccc2n1CC(=O)c1ccc(Cl)cc1 = n
6) O=C([O-])C(O)C(O)C(=O)O.[K+] (centres undefined) [POTASSIUM HYDROGENTARTRATE] = n
7) C[C@]12CC[C@@H]3c4ccc(O)cc4CC[C@H]3[C@@H]1C/C(=C\c1ccc(C#N)cc1)C2=O = n
8) N=C(N)SCc1cccc2c(=O)cc(-c3ccccc3)oc12 = n
9) CN1CCN(Cc2cc3c(nn2)-c2ccccc2C3=O)CC1 = n
10) N=c1c2c(-c3ccccc3)c[nH]c2ncn1N = n
11) Cc1nnc(Nc2ccccc2)o1 = n
12) O=C(Nn1cnn2c(=O)c3ccccc3nc2c1=O)c1ccccc1 = n
13) N#C[C@H](c1nc2ccccc2[nH]1)c1nc2ccccc2nc1Cl = n
14) Cc1ccc(CC(=O)Nc2ccc(NC(=O)/C=C/NC(=O)/C=C/c3ccc(-c4ccccc4)cc3)cc2C(=O)c2ccccc2)cc1 = n
15) CC(=O)N(CN1C(=O)CCC1C(=O)O)c1cccc(O)c1 (centres undefined) = n
16) CC1C2CCC3C(O)C2(CC(O)C2(O)C1CC(O)C2(C)C)CC3(C)O (centres undefined) = n
17) CC(C)(C)OC(=O)NCCCNC1(c2cc3ccccc3s2)CCCCC1 = n
18) COc1ccc2c(c1OC)CN1CCc3cc4c(cc3C1C2)OCO4 (centres undefined) [TETRAHYDROBERBERINE] = n
19) CCCCCCNC(=O)c1cc(NCc2cc(OC)ccc2OC)ccc1O = n
20) COc1cc(O)c2c(=O)c3ccccc3n(C)c2c1 = n
21) COC(=O)C1=C(OC(=O)/C=C/c2ccccc2)C(C(=O)OC)[C@@]2(O)[C@@H](C(=O)OC)[C@H](C)C[C@@H]1[C@@H]2C(=O)OC (some centres undefined) = n
22) COC(=O)c1c(C)cccc1C1CN=NC12Cc1cc(C)cc(C)c1C2=O (centres undefined) = n
23) CCCCCCc1cc2cc(-c3cn4ccccc4n3)c(=O)oc2cc1O = n
24) CC1CC[P+](c2ccccc2)(c2ccccc2)c2c1ccc1ccccc21 (centres undefined) = y
25) N#C/C(=C(\O)C(=O)O)c1ccc(-c2cccc3ccccc23)cc1 = n
26) CC(=O)NC1(C)C(C)C2CC1C(C)C2(C)C (centres undefined) = n
27) CCN(CCCl)c1cc(CN(C)C)cc(NC(=O)c2ccc(C(=O)Nc3ccccc3)cc2)c1 = n
28) C1CC2CN(CCCN3CCOCC3)C(C1)O2 (centres undefined) = n
29) O=C(CC(=O)N(C(=O)/C=C\c1ccccc1)c1ccc(Cl)cc1)N1N=C(c2ccccc2)C(/N=N/c2cccc([N+](=O)[O-])c2)C1=O (centres undefined) = n
30) O=C1C(=Cc2ccco2)C(=O)C2CCCCC12 (centres undefined) = n
31) COc1ccc(NC/C=C/C(=C/COC(C)=O)OC(C)=O)cc1 = n
32) COCOc1cc(OC)ccc1C=O = n
33) CC(=O)Nc1cc2cc(NS(=O)(=O)c3ccc(Cl)c(Cl)c3)ccc2oc1=O = n
34) Nc1nc(SCC(=O)c2ccccc2)nc2nc3c(c(-c4ccccc4)c12)CCCC3 = n
35) O=C1c2c(ccc3c2CCC3)CC12Cc1ccccc1C2 = n
36) CC(C)(C)N1Cc2ccccc2/C(=C/Sc2ccccc2)C1=O = n
37) CN(Cc1ccccc1)Cn1ccnc1 = n
38) Cn1c(N)c(/N=N/c2ccc(S(N)(=O)=O)cc2)c(=O)n(C)c1=O = n
39) O=C1OC(OCC#CCOC2OC(=O)C(Cl)=C2Cl)C(Cl)=C1Cl (centres undefined) = n
40) Cc1ccc2[nH]c3[nH]c(=O)[nH]c(=O)c3c2c1 = n
41) [N-]=[N+]=Nc1c(C=O)c(=O)n(-c2ccccc2)c2ccccc12 = n
42) Cc1cc(C)c(/N=N/c2c(O)c(S(=O)(=O)O)cc3cc(S(=O)(=O)O)ccc23)cc1C = n
43) CCOC(=O)c1c(NC(=O)c2ccccc2)c(C#N)c2n1CCCCC2 = n
44) CC(C)(C)C(=O)CC(=O)C(F)(F)C(F)(F)C(F)(F)F = n

----------
Tested on: U-251
Assay: NCI tumour cell line growth inhibition, 48 h
The source made the active and inactive calls. Rule as the data show it: active = GI50 up to about 1.1 µM and inactive = higher.
Classes used: YES (active), NO (inactive)

1) O=C1Nc2ccccc2C12CCCC2 = NO
2) CC1(C)CN=C(Nc2ccc(F)c(F)c2)S1 = NO
3) CC(=O)N1CCc2c([nH]c3ccc(Br)cc23)C1c1ccccc1 (configuration not stated) = NO
4) COc1ccccc1-c1csc(CCC(N)C(=O)O)n1 (configuration not stated) = NO
5) COc1cc(Nc2nc3cc(C(F)(F)F)ccc3nc2C(=O)O)cc(OC)c1OC = NO
6) O=S(O)CCCSSc1ccccc1 = NO
7) Cc1cc(Cc2cc(C)cc(C(C)(C)C)c2O)c(O)c(Cc2cc(C)cc(C(C)(C)C)c2O)c1 = NO
8) CC1(C)OCC(C2OC(On3nnc4ccc(Cl)cc43)C3OC(C)(C)OC23)O1 (configuration not stated) = NO
9) COC(=O)Cc1c([C@H]2[C@H](CC(=O)OC)c3ccccc3N2C(C)=O)[nH]c2ccccc12 = NO
10) COC(=O)Cc1cc(OC)c(OC)cc1Br = NO
11) O=C(O)COc1ccc2c3c1C(=O)CCC3CO2 (configuration not stated) = NO
12) N=C(N)SCc1cccc2c(=O)cc(-c3ccccc3)oc12 = NO
13) CCCC(=O)Nc1cc(/C=C/C(=O)N2CC(CCl)c3c2cc(OC(C)=O)c2[nH]cc(C)c32)n(C)c1 (configuration not stated) = YES
14) CC(C(=O)N1C(=O)N(C(=O)C(C)C(O)c2ccccc2)C(c2ccccc2)C1c1ccccc1)C(O)c1ccccc1 (configuration not stated) = NO
15) OCC1OC(n2cnc3c(SCc4ccccc4)ncnc32)C(O)C1O (configuration not stated) = NO
16) C[C@H](NC(=O)n1c2ccccc2c2ccccc21)C(=O)O = NO
17) CN1CCc2c(sc3ncn(C)c(=N)c23)C1 = NO
18) C[C@]12CC[C@@H]3c4ccc(OCCN5CCCC5)cc4CC[C@H]3[C@@H]1CCC2=O = NO
19) O=C1c2ccccc2C(=O)N1CCc1nc(-c2ccccc2)c[nH]1 = NO
20) CC(=O)c1nc2ccccc2n1CC(=O)c1ccc(Cl)cc1 = NO
21) CSc1nc(NC2OC(CO)C(O)C(O)C2O)c(N)c(=O)[nH]1 (configuration not stated) = NO
22) O=c1[nH]c(=O)n(COCCO)c2ccsc12 = NO
23) CCOC(=O)CSc1nc(N)c2c(-c3ccc(OC)c(OC)c3)c3c(nc2n1)CCCC3 = NO
24) SCc1ccc(CS)s1 = NO
25) CC(=O)Nc1cc2c(s1)CCC1CC(=O)NN=C21 (configuration not stated) = NO
26) Cn1c(=O)[nH]c2nncnc2c1=O = NO
27) O=C1NC(=O)C(F)(n2cc(F)c(=O)[nH]c2=O)C(O)N1 (configuration not stated) = NO

----------
Tested on: UACC-62
Assay: NCI tumour cell line growth inhibition, 48 h
The source made the active and inactive calls. Rule as the data show it: active = GI50 up to about 1.1 µM and inactive = higher.
Classes used: YES for active, NO for inactive

1) COC1/C=C\C=C(/C)C(=O)NC2=CC(=O)C(NCCCl)=C(CC(C)CC(OC)C(O)C(C)/C=C(/C)C1OC(N)=O)C2=O (stereo not given) = YES
2) O=Cc1ccc(Oc2c3ccccc3nc3ccccc23)cc1 = YES
3) O=C(OC1C(Oc2ccccc2COC(=O)C2(O)C=CCCC2=O)OC(CO)C(O)C1O)c1ccccc1 (stereo not given) = NO
4) C[C@@H]1C[C@H]2OC(=O)[C@@]3(C)CCC[C@@](C)([C@@H]23)[C@@]1(O)CCc1ccoc1 = NO
5) O=C(Nc1cccc2nsnc12)c1cc2c(cc1Cl)Sc1nccn1S2(=O)=O = NO
6) OC1[C@@H]2[C@@H](O)CCCN2C[C@@H](O)[C@H]1O (stereo not given in full) = NO
7) Cc1ccc(C)c(C(=O)CC2OC(O)C(Cl)C2Cl)c1 (stereo not given) = NO
8) Cc1ccc(/N=N/c2c(O)ccc3cc(S(=O)(=O)O)cc(S(=O)(=O)O)c23)cc1 = NO
9) CCCCCCc1cc2cc(-c3cn4ccccc4n3)c(=O)oc2cc1O = NO
10) COc1cc(O)c2c(=O)c3ccccc3n(C)c2c1 = NO
